The following are reported pIC50 results, target or system TGF-beta receptor type-1 (Homo sapiens).
Please keep in mind that pIC50 is minus log10 of the molar concentration; only the number is needed.

> print(dat)
                                   molecule  experimental.readout  measured.result
1  CCc1cccc(-c2[nH]c(CNc3ccc(C(N)=O)cc3)nc2-c2ccc3c(c2)OCO3)n1                 pIC50             7.34
2  Fc1ccc(-c2nn3c(c2-c2ccnc4ccccc24)CCC3)nc1                 pIC50             6.82

Name the recorded pIC50 of the molecule listed here: `Cc1cccc(-c2[nH]c(CNc3ccc(C#N)cc3)nc2-c2ccc3c(c2)OCO3)n1`
7.34

Respond only with pIC50 recorded for `Cc1cccc(-c2[nH]c(CNc3ccc(C(N)=O)cc3)nc2-c2ccc3c(c2)OCO3)n1`
7.68

* * *

- Target desc: UniProtKB P36897
pIC50: −log10 of the molar value.
pIC50 vs 7: at or above is t, below is f.

These recorded examples may help you get a feel for the data.
> print(dat)
                                   compound  class
1  Cc1cccc(-c2nn3c(c2-c2ccc4c(c2)ncn4C)CCC3)n1      f
2  Nc1nc(-c2ccc(F)cc2)c(-c2ccc3ncccc3n2)s1 [GW785804X]      t

hey, is pIC50 for this one >= 7? `Cc1cccc(-c2[nH]c(NCc3ccc(C#N)cc3)nc2-c2ccc3c(c2)OCO3)n1`
t

Please check the record `CCc1[nH]c(-c2ccc(OC)cc2)nc1-c1ccncc1` and state if its pIC50 is at or above 7.
f

* * *

- Target desc: TGF-beta receptor type-1 (Homo sapiens, UniProt P36897)
- Sequence (P36897 whole entry): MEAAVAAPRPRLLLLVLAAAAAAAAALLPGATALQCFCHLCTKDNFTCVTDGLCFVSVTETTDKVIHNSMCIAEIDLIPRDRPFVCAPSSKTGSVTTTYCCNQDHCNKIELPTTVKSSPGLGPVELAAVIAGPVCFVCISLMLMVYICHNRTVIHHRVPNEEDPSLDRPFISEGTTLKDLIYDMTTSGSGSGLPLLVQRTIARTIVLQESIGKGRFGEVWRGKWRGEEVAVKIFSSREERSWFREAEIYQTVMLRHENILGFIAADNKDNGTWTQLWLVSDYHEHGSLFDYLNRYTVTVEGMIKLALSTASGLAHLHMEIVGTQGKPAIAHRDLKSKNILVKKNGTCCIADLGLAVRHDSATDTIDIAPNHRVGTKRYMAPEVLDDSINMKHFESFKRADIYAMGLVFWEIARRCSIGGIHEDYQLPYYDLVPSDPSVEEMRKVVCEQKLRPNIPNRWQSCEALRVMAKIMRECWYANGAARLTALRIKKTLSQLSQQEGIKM
A collection of compounds and their measured IC50

> print(dat)
                                   compound  measured.result
1  O=C(Nc1ccc2c(-c3c(-c4ccccn4)nn4c3CCC4)ccnc2c1)OCCO            79 nM

Given `C#Cc1ccc(CNc2nc(-c3ccc4c(c3)OCO4)c(-c3cccc(C)n3)[nH]2)cc1` , respond with its IC50.
153 nM

State, in one line, measured IC50 of Nc1nc(-c2cccc(Cl)c2)c(-c2ccc3ncccc3n2)s1 [GW780159X]
13 nM

Identify the reported IC50 for the following entry. `CN(C)CCCNC(=O)Nc1ccc2c(-c3c(-c4ccccn4)nn4c3CCC4)ccnc2c1`
255 nM

Give recorded IC50. `CN(C)CCNC(=O)Nc1ccc2c(-c3c(-c4ccccn4)nn4c3CCC4)ccnc2c1`
18 nM

Recall and state the measured IC50 for `CCc1cccc(-c2nn3c(c2-c2ccnc4ccccc24)CCC3)n1` .
71 nM

Read the entry `Cc1cccnc1-c1nc(N)sc1-c1ccc2ncccc2n1` and write its reported IC50.
6 nM

Identify measured IC50 corresponding to `Cc1cccc2ccc(-c3sc(N)nc3-c3ccccn3)nc12`
30 nM

Quickly give me recorded IC50 for `CN(C)CCCc1cccc(-c2cc(-c3c[nH]nc3-c3ccccn3)ccn2)c1`
15 nM

Answer with the recorded IC50 for the compound listed here: c1ccc(-c2n[nH]cc2-c2ccnc(-c3ccc(CNC4CCCOC4)cc3)c2)nc1 (stereo not drawn)
47 nM

Determine from records and report IC50 for `c1ccc(-c2nn3c(c2-c2ccnc4ccccc24)CCC3)nc1`
104 nM

Tell me measured IC50 for Fc1ccc(C2C(c3ccncc3)NC3SCCN32)cc1 (stereo not drawn) please.
50000 nM

Supply measured IC50 of `CCS(=O)(=O)c1ccc2c(-c3c(-c4ccccn4)nn4c3CCC4)ccnc2c1` in your reply.
9290 nM
